Tested on: CEM cells HIV-1 protection, formazan growth assay
Experiment description: NCI AIDS Antiviral Assay
Experimental context: measured here: growth of uninfected CEM cells
pIC50: −log10 of the molar value.

# Molecule, Tested target, Qualifier sign, pIC50
records = [
    ("CCOP(=O)(OCC)C(Cc1ccccc1)N=C(c1ccccc1)c1ccccc1 (stereo unspecified)", "CEM cells HIV-1 protection, formazan growth assay", "=", 4.97),
    ("CC[N+](CC)=c1cc2oc3cc(N(C)C)ccc3nc-2cc1C", "CEM cells HIV-1 protection, formazan growth assay", "=", 4.79),
    ("COc1nc2ncc([C@@H](O)[C@H](O)CO)nc2c(=O)[nH]1", "CEM cells HIV-1 protection, formazan growth assay", "<", 3.70),
    ("O=S1(=O)c2ccccc2N(c2ccccc2)c2nnnn21", "CEM cells HIV-1 protection, formazan growth assay", "=", 4.48),
    ("N#C/C(=C\\n1c(=S)[nH]c2ccc([N+](=O)[O-])cc21)c1nc2ccccc2s1", "CEM cells HIV-1 protection, formazan growth assay", "=", 3.99),
    ("CCOC(=O)C1C2c3ccccc3C(c3ccccc32)C1C(=O)OCC (stereo unspecified)", "CEM cells HIV-1 protection, formazan growth assay", "<", 3.70),
]
